# System: Escherichia coli
# assay-protocol: Antibacterial activity against Escherichia coli ATCC 25922 assessed as reduction in microbial growth incubated for 24 hrs by broth microdilution method
# Assay type: functional
quantity-name: MIC (µg/mL)
Answers are plain numbers, in µg/mL.

// below: answered molecules
1. CCn1cc(C(=O)O)c(=O)c2cc(F)c(N3CCN(Cc4cnc(C)c(O)c4CO)CC3)cc21.Cl = 64
2. CCn1cc(C(=O)O)c(=O)c2cc(F)c(N3CCN(Cc4cnc(C)c(O)c4CO)C(C)C3)c(F)c21.Cl (stereo unspecified) = 8
3. Cc1ncc(CN2CCN(c3cc4c(cc3F)c(=O)c(C(=O)O)cn4C3CC3)CC2)c(C)c1O.Cl = 1

Give MIC for each of the items listed below.
1. CCn1cc(C(=O)O)c(=O)c2cc(F)c(N3CCN(Cc4cnc(C)c5c4COC(C)(C)O5)CC3)cc21
2. Cc1ncc(CN2CCN(c3cc4c(cc3F)c(=O)c(C(=O)O)cn4C3CC3)CC2)c2c1OC(C)(C)OC2.Cl
3. CCn1cc(C(=O)O)c(=O)c2cc(F)c(N3CCN(Cc4cnc(C)c5c4COCO5)C(C)C3)c(F)c21.Cl (stereo unspecified)
4. Cc1nc(CN2CCN(c3cc4c(cc3F)c(=O)c(C(=O)O)cn4C3CC3)CC2)c(CO)c2c1OC(C)(C)OC2

1. 64
2. 64
3. 16
4. 64

* * *

Kindly supply the reported MIC values for the records listed here.
# System: Enterococcus faecalis
# assay-protocol: Antibacterial activity against clinical isolate Enterococcus faecalis 1465 assessed as reduction in microbial growth incubated for 24 hrs by broth microdilution method
# Format: functional
Numbers only, in µg/mL.

1. COc1c(N2C[C@@H]3CCCN(Cc4cnc(C)c(O)c4C)[C@@H]3C2)c(F)cc2c(=O)c(C(=O)O)cn(C3CC3)c12.Cl.Cl = 4
2. Cc1ncc(CN2CCN(c3cc4c(cc3F)c(=O)c(C(=O)O)cn4C3CC3)CC2)c(CO)c1O.Cl = 32
3. COc1c(N2C[C@@H]3CCCN(Cc4nc(C)c5c(c4CO)COC(C)(C)O5)[C@@H]3C2)c(F)cc2c(=O)c(C(=O)O)cn(C3CC3)c12 = 16

Kindly review the next compound as well.
So what's the measured MIC for this one? Cc1ncc(CN2CCN(c3cc4c(cc3F)c(=O)c(C(=O)O)cn4C3CC3)CC2)c(C)c1O.Cl
16

* * *

# System: Staphylococcus aureus
# assay-protocol: Antibacterial activity against clinical isolate Staphylococcus aureus 4721 assessed as reduction in microbial growth incubated for 24 hrs by broth microdilution method
# Assay type: functional
quantity-name: MIC
Value and unit, in that order.

// below: answered compounds
1. CCn1cc(C(=O)O)c(=O)c2cc(F)c(N3CCN(Cc4nc(C)c5c(c4CO)COC(C)(C)O5)CC3)cc21 = 4 µg/mL
2. CCn1cc(C(=O)O)c(=O)c2cc(F)c(N3CCN(Cc4cnc(C)c(O)c4CO)C(C)C3)c(F)c21.Cl (centres undefined) = 1 µg/mL
3. COc1c(N2C[C@@H]3CCCN(Cc4nc(C)c5c(c4CO)COC(C)(C)O5)[C@@H]3C2)c(F)cc2c(=O)c(C(=O)O)cn(C3CC3)c12 = 1 µg/mL

Kindly review the next compound as well.
So what's the measured MIC for this one? Cc1nc(CO)c(CN2CCN(c3cc4c(cc3F)c(=O)c(C(=O)O)cn4C3CC3)CC2)c(CO)c1O.Cl
2 µg/mL

* * *

# assay-protocol: Cytotoxicity against human HSF assessed as reduction in cell viability incubated for 72 hrs by MTT assay
# Format: toxicity, cell-based
# conditions: HSF cells
Kindly supply the reported log10 of CC50 at 72 h values for the records listed here.
Please be aware that the numbers have been log10-transformed from CC50 at 72 h in µg/mL.

// below: answered compounds
1. CCn1cc(C(=O)O)c(=O)c2cc(F)c(N3CCN(Cc4nc(C)c5c(c4CO)COC(C)(C)O5)CC3)cc21 = 1.40
2. CCn1cc(C(=O)O)c(=O)c2cc(F)c(N3CCN(Cc4cnc(C)c(O)c4CO)C(C)C3)c(F)c21.Cl (configuration not stated) = 1.35
3. Cc1nc(CO)c(CN2CCN(c3cc4c(cc3F)c(=O)c(C(=O)O)cn4C3CC3)CC2)c(CO)c1O.Cl = 1.58
4. COc1c(N2C[C@@H]3CCCN(Cc4cnc(C)c(O)c4C)[C@@H]3C2)c(F)cc2c(=O)c(C(=O)O)cn(C3CC3)c12.Cl.Cl = 1.25
5. CCCC1OCc2c(CN3CCC[C@H]4CN(c5c(F)cc6c(=O)c(C(=O)O)cn(C7CC7)c6c5OC)C[C@H]43)cnc(C)c2O1 (some centres not stated) = 0.37

Give log10 of CC50 at 72 h for each of the items listed below.
1. COc1c(N2C[C@@H]3CCCN(Cc4cnc(C)c(O)c4CO)[C@@H]3C2)c(F)cc2c(=O)c(C(=O)O)cn(C3CC3)c12.Cl
2. Cc1ncc(CN2CCN(c3cc4c(cc3F)c(=O)c(C(=O)O)cn4C3CC3)CC2)c(C)c1O.Cl
3. CCn1cc(C(=O)O)c(=O)c2cc(F)c(N3CCN(Cc4cnc(C)c5c4COCO5)CC3)cc21.Cl
4. CCn1cc(C(=O)O)c(=O)c2cc(F)c(N3CCNCC3)cc21 [NORFLOXACIN]
5. Cc1ncc(CN2CCN(c3cc4c(cc3F)c(=O)c(C(=O)O)cn4C3CC3)CC2)c2c1OCOC2.Cl
6. COc1c(N2C[C@@H]3CCCN(Cc4c(CO)nc(C)c(O)c4CO)[C@@H]3C2)c(F)cc2c(=O)c(C(=O)O)cn(C3CC3)c12.Cl

1. 1.75
2. 1.44
3. 1.37
4. 1.58
5. 1.61
6. 1.55

So what's the measured log10 of CC50 at 72 h for this one? COc1c(N2C[C@@H]3CCCN(Cc4cnc(C)c5c4COCO5)[C@@H]3C2)c(F)cc2c(=O)c(C(=O)O)cn(C3CC3)c12.Cl
0.76

* * *

# Test system: Salmonella typhimurium
# assay-protocol: Antibacterial activity against Salmonella typhimurium TA100 assessed as reduction in microbial growth incubated for 24 hrs by broth microdilution method
# Format: functional, Salmonella enterica subsp. enterica serovar Typhimurium
# conditions: Salmonella enterica
quantity-name: MIC

// below: answered compounds
1) CCn1cc(C(=O)O)c(=O)c2cc(F)c(N3CCN(Cc4cnc(C)c5c4COC(C)(C)O5)CC3)cc21 = > 64 µg/mL
2) CCn1cc(C(=O)O)c(=O)c2cc(F)c(N3CCN(Cc4cnc(C)c5c4COC(C)(C)O5)C(C)C3)c(F)c21.Cl (centres undefined) = 2 µg/mL
3) O=C(O)c1cn(C2CC2)c2cc(N3CCNCC3)c(F)cc2c1=O = 1 µg/mL

Kindly review the next compound as well.
So what's the measured MIC for this one? CCCC1OCc2c(CN3CCC[C@H]4CN(c5c(F)cc6c(=O)c(C(=O)O)cn(C7CC7)c6c5OC)C[C@H]43)cnc(C)c2O1 (some centres undefined)
4 µg/mL

* * *

# assayed-system: DNA gyrase (Staphylococcus aureus, UniProt P0A0K8+P20831)
# Sequence (P0A0K8 whole entry): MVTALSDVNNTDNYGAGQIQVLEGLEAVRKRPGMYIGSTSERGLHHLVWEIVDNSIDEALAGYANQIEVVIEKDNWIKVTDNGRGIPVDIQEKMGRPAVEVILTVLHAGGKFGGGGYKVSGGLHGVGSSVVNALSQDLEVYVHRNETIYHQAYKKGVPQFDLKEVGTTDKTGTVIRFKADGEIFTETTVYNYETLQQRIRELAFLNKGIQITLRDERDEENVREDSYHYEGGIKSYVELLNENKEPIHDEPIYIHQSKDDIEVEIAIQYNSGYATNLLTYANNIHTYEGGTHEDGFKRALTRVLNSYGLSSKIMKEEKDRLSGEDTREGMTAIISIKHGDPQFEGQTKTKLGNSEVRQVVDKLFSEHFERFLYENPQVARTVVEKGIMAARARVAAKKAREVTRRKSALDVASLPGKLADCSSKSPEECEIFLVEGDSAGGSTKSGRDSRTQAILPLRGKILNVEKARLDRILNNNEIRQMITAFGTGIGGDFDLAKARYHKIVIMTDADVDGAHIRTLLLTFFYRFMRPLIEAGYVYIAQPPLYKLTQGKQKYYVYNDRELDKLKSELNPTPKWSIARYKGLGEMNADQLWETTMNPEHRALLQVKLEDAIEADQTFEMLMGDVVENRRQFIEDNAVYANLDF
# Sequence (P20831 whole entry): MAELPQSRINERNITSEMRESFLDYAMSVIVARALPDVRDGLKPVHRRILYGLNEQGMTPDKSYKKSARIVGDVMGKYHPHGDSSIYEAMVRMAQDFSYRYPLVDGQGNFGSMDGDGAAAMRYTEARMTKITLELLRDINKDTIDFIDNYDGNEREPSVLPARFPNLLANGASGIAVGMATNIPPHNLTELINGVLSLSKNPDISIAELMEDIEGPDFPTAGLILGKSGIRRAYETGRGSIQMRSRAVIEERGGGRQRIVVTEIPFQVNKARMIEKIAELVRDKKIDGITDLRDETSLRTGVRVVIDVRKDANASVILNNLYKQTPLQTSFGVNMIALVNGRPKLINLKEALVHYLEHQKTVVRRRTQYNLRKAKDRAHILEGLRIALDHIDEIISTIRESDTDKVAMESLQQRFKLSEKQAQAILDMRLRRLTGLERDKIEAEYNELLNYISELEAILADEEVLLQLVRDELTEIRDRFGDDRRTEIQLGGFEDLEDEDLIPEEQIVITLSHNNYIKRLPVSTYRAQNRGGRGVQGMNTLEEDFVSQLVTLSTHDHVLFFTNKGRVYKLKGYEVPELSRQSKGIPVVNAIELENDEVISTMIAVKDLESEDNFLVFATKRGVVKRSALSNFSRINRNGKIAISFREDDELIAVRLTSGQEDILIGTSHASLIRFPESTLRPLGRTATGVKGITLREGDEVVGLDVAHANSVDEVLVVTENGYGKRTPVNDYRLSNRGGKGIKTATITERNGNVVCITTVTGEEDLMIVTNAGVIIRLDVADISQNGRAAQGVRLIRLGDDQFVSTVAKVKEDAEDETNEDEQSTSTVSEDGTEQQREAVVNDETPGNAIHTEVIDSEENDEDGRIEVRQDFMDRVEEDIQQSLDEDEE
# assay-protocol: Inhibition of Staphylococcus aureus DNA gyrase using supercoiled pBR322 DNA as substrate incubated for 60 mins by ethidium bromide staining based agarose gel electrophoresis method
# Format: protein-complex assay
quantity-name: IC50 (µM)
Give bare numbers, in µM.

# value lookup — system DNA gyrase (Staphylococcus aureus, UniProt P0A0K8+P20831), readout IC50, item Cc1ncc(CN2CCN(c3cc4c(cc3F)c(=O)c(C(=O)O)cn4C3CC3)CC2)c(CO)c1O.Cl
59.7

* * *

# Test system: Klebsiella pneumoniae
# assay-protocol: Antibacterial activity against clinical isolate Klebsiella pneumoniae 1678 assessed as reduction in microbial growth incubated for 24 hrs by broth microdilution method
# Format: functional
quantity-name: MIC (µg/mL)
Numbers only, in µg/mL.

// below: answered compounds
1) CCn1cc(C(=O)O)c(=O)c2cc(F)c(N3CCNCC3)cc21 = 1
2) COc1c(N2C[C@@H]3CCCN(Cc4nc(C)c(O)c(CO)c4CO)[C@@H]3C2)c(F)cc2c(=O)c(C(=O)O)cn(C3CC3)c12.Cl = 64
3) CCn1cc(C(=O)O)c(=O)c2cc(F)c(N3CCNC(C)C3)c(F)c21 (stereo not drawn) = 1

Give MIC for each of the items listed below.
1. COc1c(N2C[C@@H]3CCCN(Cc4c(CO)nc(C)c(O)c4CO)[C@@H]3C2)c(F)cc2c(=O)c(C(=O)O)cn(C3CC3)c12.Cl
2. Cc1ncc(CN2CCN(c3cc4c(cc3F)c(=O)c(C(=O)O)cn4C3CC3)CC2)c2c1OCOC2.Cl
3. Cc1ncc(CN2CCN(c3cc4c(cc3F)c(=O)c(C(=O)O)cn4C3CC3)CC2)c(C)c1O.Cl

1: 64; 2: 16; 3: 16
